Where these numbers come from: PubChem BioAssay (NCATS)

assay: Primary redox qHTS assay for identification of artifact compounds. (AID 1845223); settings: Amplex Red/HRP redox cycling with DTT, fluorescence; series mostly up to 53.8 µM;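 note: 0% = DMSO and 100% = reference compound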
Results filed as inconclusive are left out. Activity calls are given as the source filed them. Calls come from the whole dose curve; as a rule, active = well fitted activation curve with a large enough effect; inconclusive = small, poorly fitted or top-dose-only effect; inactive = flat fitted curve, though single readings scatter.
METRIC NAME: redox activity (% of DA3003)

Answered cases to consult:
MOLECULE	redox activity (% of DA3003)
CCCC1(c2ccccc2)NC(=O)N(CC(=O)N(C)Cc2c(F)cccc2Cl)C1=O (stereo not drawn)	inactive
CC(O)/C=C/C1(O)C2(C)COC1(C)CC(O)C2 (stereo not drawn)	inactive
c1ccc(N2CCN(CCc3nn[nH]n3)CC2)cc1	inactive
CC1(C)CC[C@]2(C(=O)O[C@@H]3O[C@H](CO)[C@@H](O)[C@H](O)[C@H]3O)CC[C@]3(C)C(=CCC4[C@@]5(C)C[C@@H](O)[C@H](O)C(C)(C)C5CC[C@]43C)C2[C@@H]1O (stereo partly drawn)	inactive
CC(=O)c1cc2c(cc1O)OC(C)(C)C=C2	inactive

Inquiry: Endpoint output: redox activity (% of DA3003) of COc1c(Nc2ncc(Cl)c(N[C@H]3[C@@H](C(N)=O)[C@@H]4C=C[C@H]3C4)n2)ccc2c1CC[C@@H](N1CCOCC1)CC2 . Value?
Reply text: inactive

Inquiry: For CC(C)NCC(C(=O)N1CCN(c2ncnc3c2C(C)CC3O)CC1)c1ccc(Cl)cc1 (stereo not drawn) then?
Reply text: inactive

Inquiry: Entry COc1cc([C@H]2c3cc(O)c(OC)cc3C[C@@H](CO[C@@H]3O[C@H](CO)[C@@H](O)[C@H](O)[C@H]3O)[C@@H]2CO)ccc1O please
Reply text: inactive

Inquiry: Now consider CC1=CC(=O)C2C(C)(C)CCC[C@]2(C)[C@H]1CO (stereo partly drawn) and answer again.
Reply text: inactive

Inquiry: Continue with C=CCC1=C[C@]2(OC)[C@H](C)[C@@H](c3ccc(O)c(OC)c3)O[C@]2(OC)CC1=O
Reply text: inactive

Inquiry: Try this molecule next: CC1=C(C(=O)OCc2ccccc2)C(c2ccc(-c3ccccc3)cc2)NC(=O)N1CCCCCC(=O)O (stereo not drawn)
Reply text: inactive

Inquiry: Lookup O=C(Nc1ccc(S(=O)(=O)C(F)(F)F)cc1)C1=CCN(c2ncccc2C(F)(F)F)CC1
Reply text: inactive

Inquiry: Next record, please: CCC(C)C(=O)OC1CC(O)C23C4OCC5(C(O)CC2C1(C)C(O)O4)C3C(=O)C(O)C1(C)C(O)(c2ccoc2)CC2OC251 (stereo not drawn)
Reply text: inactive

Inquiry: Here is the next molecule: COC(=O)N(C)c1c(N)nc(-c2nn(Cc3ccccc3F)c3ncccc23)nc1N
Reply text: inactive

Inquiry: Same lookup for COc1ncc(Nc2ncc([C@H](C)N3CCN(S(C)(=O)=O)CC3)cc2-c2nc(C)nc(N)n2)cc1F , please.
Reply text: inactive

====

system: Es-2; assay: Primary qHTS to identify gynecologic anti-cancer compounds using libraries of approved drugs and bioactive compounds (AID 1345084); settings: Gynecologic cancer cell panel viability, ATPlite luminescence, 48 h; series mostly up to 57.5 µM; note: nearly all actives have a fitted effect of over 55% in size; note: potency is the fitted concentration of half-maximal effect
Inconclusive results are not listed. Activity calls are given as the source filed them. Calls come from the whole dose curve; as a rule, active = well fitted cell-killing curve with a large enough effect; inconclusive = small, poorly fitted or top-dose-only effect, or effect the other way; inactive = flat fitted curve, though single readings scatter.
METRIC NAME: Potency

COMPOUND	Potency
CC[C@@H](O)C[C@@H]1C(C)=C[C@@H]2CCCC[C@@H]2[C@@]1(C)C(=O)O	inactive
COc1cc2c(cc1O)CC[C@H]1[C@@H]2CC[C@]2(C)[C@H](O)CC[C@@H]12	3.98 µM (active)
COC(=O)C1=C2Nc3ccccc3C23CCN2CCCC(C(C)O)(C1)C23 (stereo not given)	inactive
CC(=O)OCC1(O)CCC2C(COC3OC(CO)C(O)C(O)C3OC(=O)/C=C/c3ccc(O)cc3)=COC(OC(=O)CC(C)C)C21 (stereo not given)	inactive

# context switch: different compound, same Potency
Inquiry: Observed Potency on Es-2 for O=C(O)CC1CCC(c2ccc(-c3ccc4nc(C(=O)NCc5ccc(OC(F)(F)F)cc5)cn4c3)cc2)CC1 (stereo not given) , please.
Reply text: inactive

====

test system: OV90; experiment: Primary qHTS to identify gynecologic anti-cancer compounds using libraries of approved drugs and bioactive compounds (AID 1345084); conditions: Gynecologic cancer cell panel viability, ATPlite luminescence, 48 h; series mostly up to 57.5 µM; note: nearly all actives have a fitted effect of over 55% in size; note: potency is the fitted concentration of half-maximal effect
Inconclusive results are not listed. Calls of active or inactive are those of the source. Calls follow the shape of the dose curve; as a rule, active = well fitted cell-killing curve with a large enough effect; inconclusive = small, poorly fitted or top-dose-only effect, or effect the other way; inactive = flat fitted curve, though single readings scatter.
Let's look at some compounds and their measured Potency.

Look over these answered cases.
CHEMICAL SMILES	MEASUREMENT TARGET	Potency
Cn1c(=O)n(-c2ccc(C(C)(C)C#N)cc2)c2c3cc(C#Cc4cccnc4)ccc3ncc21	OV90	0.224 µM (active)
COC(=O)N1CCC(n2ncc3c(N4CCOCC4)nc(-c4ccc(NC(=O)Nc5ccc(CO)cc5)cc4)nc32)CC1	OV90	0.794 µM (active)
CCOC(=O)Nc1cc(-c2ccc(C)c(NS(C)(=O)=O)c2)nn2c(C)nnc12	OV90	12.6 µM (active)
CN1CCN(Cc2ccc(-c3cnc4[nH]cc(-c5ccc6[nH]ccc6c5)c4c3)cc2)CC1	OV90	10 µM (active)

Inquiry: API: value(readout= Potency, system= OV90, query= COc1cc2nc(N3CCCC3)nc(NCCCCCN3CCCC3)c2cc1OC )
Reply text: 25.1 µM (active)

====

tested on: PA-1; assay: Primary qHTS to identify gynecologic anti-cancer compounds using libraries of approved drugs and bioactive compounds (AID 1345084); details: Gynecologic cancer cell panel viability, ATPlite luminescence, 48 h; series mostly up to 57.5 µM; note: nearly all actives have a fitted effect of over 55% in size
Inconclusive results are not listed. Activity calls are given as the source filed them. The call rests on the fitted dose curve; in most records, active means well fitted cell-killing curve with a large enough effect; inconclusive means small, poorly fitted or top-dose-only effect, or effect the other way; inactive means flat fitted curve, though single readings scatter. Where a SMILES comes first, the peptide text is derived from it. [ ]: non-standard residue; d: D form. The star is where a group is joined. ξ: configuration not given here. AFC = O=c1cc(C(F)(F)F)c2ccc(N*)cc2o1; ξPhe(βξ-Me) = CC(c1ccccc1)C(N)C(=O)O; GABA = NCCCC(=O)O
Write down one outcome, taken from 1 for active, 0 for inactive

Worked set:
COMPOUND	ASSIGNED CATEGORY
CN1CCc2nc(C(=O)N[C@@H]3C[C@@H](C(=O)N(C)C)CC[C@@H]3NC(=O)C(=O)Nc3ccc(Cl)cn3)sc2C1	0
O=C(O)Cc1ccc2oc(-c3ccc(NC(=O)/C=C/c4ccc(Br)cc4)c(F)c3)nc2c1	0
CC12CCC3c4ccc(O)cc4CCC3C1CC(OC1OC(C(=O)O)C(O)C(O)C1O)C2O (stereo not given)	0
COc1cccc2cc3c(c(O[C@@H]4O[C@H](CO[C@@H]5O[C@H](CO)[C@@H](O)[C@H](O)[C@H]5O)[C@@H](O)[C@H](O)[C@H]4O)c12)C(C)OC3=O (stereo not given in full)	0
OC[C@H]1O[C@@H](OCCc2ccc(O)cc2)[C@H](O[C@@H]2OC[C@](O)(CO)[C@H]2O)[C@@H](O)[C@@H]1O	0
COc1ccc([C@@]2(O)c3c(ccc4c3OC(C)(CCC=C(C)C)C=C4)NC(=O)[C@@H]2OC)cc1 (stereo not given in full)	0

Inquiry: GET /call?item= COC(=O)C1=COC(OC2OC(CO)C(O)C(O)C2O)C2C1C=CC2(O)CO (stereo not given) returns the recorded outcome of this test.
Reply text: 0

Inquiry: For CC(=O)O[C@@H]1CC(C)=C2[C@H]1[C@H](C)CC[C@H]2/C=C(\C)C(=O)O then?
Reply text: 0

Inquiry: Try O=C(CC(c1ccccc1)c1ccccc1)N1CCN(C(c2ccccc2)c2ccccc2)CC1 next.
Reply text: 0

Inquiry: Continue with CC(C)CC1NC(=O)C2CC3(O)c4ccccc4NC3N2C1=O (stereo not given)
Reply text: 0

Inquiry: Same lookup for CC(=O)N[C@@H](Cc1c[nH]c2ccccc12)C(=O)N[C@@H](CCC(=O)O)C(=O)N[C@@H](Cc1cnc[nH]1)C(=O)N[C@@H](CC(=O)O)C(=O)Nc1ccc2c(C(F)(F)F)cc(=O)oc2c1 (Ac-WEHD-{AFC}) , please.
Reply text: 0

Inquiry: Check [N-]=[N+]=N[C@]1(CO)O[C@@H](n2ccc(=O)[nH]c2=O)[C@@H](O)[C@@H]1O too.
Reply text: 0

Inquiry: Also need CC1NC(=O)CCCNC(=O)C(Cc2c[nH]c3ccccc23)NC(=O)C(C)NC(=O)C(C(C)C)NC(=O)C(C(C)c2ccccc2)NC(=O)C(C(C)C)NC1=O (stereo not drawn) (cyclo([GABA]AV[ξPhe(βξ-Me)]VAW); configuration not given here) , thanks.
Reply text: 0

Inquiry: Then this compound: COc1ccc(CCO[C@@H]2O[C@H](CO[C@@H]3OC[C@H](O)[C@H](O)[C@H]3O)[C@@H](O)[C@H](O)[C@H]2O)cc1
Reply text: 0

Inquiry: Follow-up item: N#Cc1c(Oc2ccc(F)c(NC(=O)Cc3cccc(C(F)(F)F)c3)c2)ccc2nc(NC(=O)C3CC3)sc12
Reply text: 1

====

system: Zika virus NS2B-NS3 protease (linked construct); assay: Primary screen NINDS Rhodamine qHTS for Zika virus inhibitors (AID 1347160); details: purified NS2B-NS3 protease, Rhodamine110 substrate fluorescence; series mostly up to 57.1 µM; note: nearly all actives have a fitted effect of over 55% in size
Records with an inconclusive call do not appear. Active and inactive are the calls of the source. The call rests on the fitted dose curve; in most records, active means well fitted inhibition curve with a large enough effect; inconclusive means small, poorly fitted or top-dose-only effect; inactive means no such curve, though single readings can be large or run the other way.
Select the correct class. Options are label 1 = active, label 0 = inactive and nothing else.

Reference set (10 entries):
MOLECULE	MEASUREMENT TARGET	ASSIGNED CATEGORY
CC(=O)O[C@H]1C[C@@]2(C)[C@@H](CC[C@H]3[C@@]4(C)C=CC(=O)[C@@H](C)[C@@H]4[C@H](O)C(=O)[C@@]32C)/C1=C(/CCC=C(C)C)C(=O)O	Zika virus NS2B-NS3 protease (linked construct)	label 0
C[C@@H]1C(=O)O[C@H](C)[C@H]1CC(=O)[C@](C)(O)[C@H]1CC[C@@]2(O)C3=CC(=O)[C@@H]4C[C@@H](O)[C@@H](O)C[C@]4(C)C3CC[C@]12C (stereo partly drawn)	Zika virus NS2B-NS3 protease (linked construct)	label 0
CCC(COC)n1nnc2c(Nc3ccc(OC)cc3C)nc(C)cc21 (stereo not drawn)	Zika virus NS2B-NS3 protease (linked construct)	label 0
Cc1cccc(C)c1OCc1cc(C(=O)N2CCC(c3ccncc3)CC2)no1	Zika virus NS2B-NS3 protease (linked construct)	label 0
CC1=C(CCC(C)O[C@@H]2O[C@H](CO)[C@@H](O)[C@H](O)[C@H]2O)C(C)(C)CCC1=O (stereo partly drawn)	Zika virus NS2B-NS3 protease (linked construct)	label 0
CC1OC(OC2C(C)OC(OC3C(O)C(CO)OC(O[C@H]4CC[C@@]5(C)C(CC[C@]6(C)C5CC=C5C7[C@@H](C)[C@H](C)CC[C@]7(C(=O)O)CC[C@]56C(=O)O)C4(C)C)C3O)C(O)C2O)C(O)C(O)C1O (stereo partly drawn)	Zika virus NS2B-NS3 protease (linked construct)	label 0
O=C1CCC=CC1(O)C(=O)OCc1ccccc1O[C@@H]1O[C@H](CO)[C@@H](O)[C@H](O)[C@H]1O (stereo partly drawn)	Zika virus NS2B-NS3 protease (linked construct)	label 0
Cc1c(C(=O)N2CCOc3ccc(-c4ccc(N)nc4)cc3C2)ccc(S(C)(=O)=O)c1F	Zika virus NS2B-NS3 protease (linked construct)	label 0
O=C(/C=C\c1ccc(O)cc1)N[C@@H](Cc1ccc(O)cc1)C(=O)O	Zika virus NS2B-NS3 protease (linked construct)	label 1
C/C=C(\C)C(=O)O[C@H]1[C@@H](O[C@]2(COC(=O)CC(C)C)O[C@H](COC(=O)C(C)CC)[C@@H](OC(C)=O)[C@@H]2O)O[C@H](COC(C)=O)[C@@H](O)[C@@H]1O (stereo partly drawn)	Zika virus NS2B-NS3 protease (linked construct)	label 0

Inquiry: Any idea what this test logged for Cc1cc(C(N)=O)ccc1-n1c(CCC(=O)O)ccc1-c1ccc(-n2ccnc2)cc1 ?
Reply text: label 0

Inquiry: And for COc1cc2ncnc(Nc3cccc(Cl)c3F)c2cc1OC(=O)N1CCN(C)C[C@H]1C ?
Reply text: label 0

Inquiry: Can you check C[C@@H]1O[C@@H](O[C@@H]2CO[C@@H](O[C@H]3CC[C@@]4(C)C(CC[C@]5(C)C4CC=C4[C@@H]6CC(C)(C)CC[C@]6(C(=O)O[C@@H]6O[C@H](CO)[C@@H](O)[C@H](O)[C@H]6O)CC[C@]45C)[C@]3(C)CO)[C@H](O)[C@H]2O[C@@H]2O[C@H](CO)[C@@H](O)[C@H](O)[C@H]2O)[C@H](O)[C@H](O)[C@H]1O (stereo partly drawn) next?
Reply text: label 0
